Overview of reported ED50 across a group of molecules:
tested on: Rattus norvegicus; assay: Tested for locomotor activity in rat by peroral administration; format: functional; conditions: po
State the answer as a number, implicitly in mg/kg.

Query: ED50; subject: C1=C(c2ccccc2)CCC(CCN2CCN(c3ccccn3)CC2)C1 (racemic)
6.7

Query: ED50; subject: CN1CCC=C2c3nc(N)sc3CCC21 (racemic)
0.8

Query: ED50; subject: C1=C(c2ccccc2)CC[C@@H](CCN2CCN(c3ccccn3)CC2)C1
9.1

====

Overview of reported ED50 across a group of compounds:
system: Rattus norvegicus; experiment: Tested for locomotor activity (LMA) in rat by peroral administration; type: functional; details: po
State the answer as a number, implicitly in mg/kg.

Query: ED50; subject: C1=C(c2ccccn2)CCC(N2CCN(c3ccccn3)CC2)C1 (stereo not given)
5.8

Query: ED50; subject: C1=C(c2ccccc2)CCC(CCN2CCN(c3ccccn3)CC2)C1 (stereo not given)
6.7

Query: ED50; subject: C1=C(c2cccs2)CCC(CCN2CCN(c3ccccn3)CC2)C1 (stereo not given)
13
